Endpoint: IC50. System: Protein arginine N-methyltransferase 3 (Homo sapiens). Items follow.
Sequence (O60678 whole entry): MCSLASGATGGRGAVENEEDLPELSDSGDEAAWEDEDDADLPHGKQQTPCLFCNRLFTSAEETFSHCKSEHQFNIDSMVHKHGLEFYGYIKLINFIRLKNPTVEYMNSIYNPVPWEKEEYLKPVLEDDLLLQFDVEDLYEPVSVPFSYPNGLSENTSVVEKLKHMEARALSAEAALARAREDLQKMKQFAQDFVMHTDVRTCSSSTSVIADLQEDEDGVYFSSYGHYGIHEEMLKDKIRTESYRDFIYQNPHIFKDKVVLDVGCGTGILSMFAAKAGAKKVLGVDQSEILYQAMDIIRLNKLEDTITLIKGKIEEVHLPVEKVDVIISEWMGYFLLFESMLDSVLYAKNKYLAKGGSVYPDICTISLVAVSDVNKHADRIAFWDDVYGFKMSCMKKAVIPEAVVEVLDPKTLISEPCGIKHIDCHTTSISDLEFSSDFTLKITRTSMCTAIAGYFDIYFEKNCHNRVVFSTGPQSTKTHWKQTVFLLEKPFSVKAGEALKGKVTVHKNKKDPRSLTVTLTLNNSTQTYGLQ
Unit µM implied. Number only.

INSERT INTO measurements (mol, system, measured_property, meas_value) VALUES
  ('CNCCN(C)C', 'Protein arginine N-methyltransferase 3 (Homo sapiens)', 'IC50', 35);

Moving on to the next compound.
Request: What value of IC50 has been recorded for this entry: NCCN1CCC(Cc2ccccc2)CC1
Response: 19

====

system: Protein arginine N-methyltransferase 6 (Homo sapiens, UniProt Q96LA8)
Sequence (Q96LA8 whole entry): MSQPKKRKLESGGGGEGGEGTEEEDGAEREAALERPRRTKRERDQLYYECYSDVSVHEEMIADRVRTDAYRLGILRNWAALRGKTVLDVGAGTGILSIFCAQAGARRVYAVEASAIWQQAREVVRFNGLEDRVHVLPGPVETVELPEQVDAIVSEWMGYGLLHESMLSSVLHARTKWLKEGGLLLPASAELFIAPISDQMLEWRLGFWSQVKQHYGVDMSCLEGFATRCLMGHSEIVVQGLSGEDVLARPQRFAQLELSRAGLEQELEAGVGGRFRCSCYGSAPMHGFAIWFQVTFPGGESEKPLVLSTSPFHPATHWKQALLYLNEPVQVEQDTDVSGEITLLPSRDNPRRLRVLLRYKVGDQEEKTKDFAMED
procedure text: Inhibition of N-terminal hexa-His tagged human PRMT6 expressed in Sf9 cells using 24 residues of biotin labelled histone4 substrate and tritiated 3H-S-adenosylmethionine by scintillation proximity assay
measured property: IC50

Take a look at these entries with their results.
INSERT INTO measurements (molecule, measured_property, meas_value) VALUES
  ('CNCc1cccc(-c2ccco2)c1', 'IC50', '146 µM'),
  ('CNCc1cccc(-c2cccnc2)c1', 'IC50', '104 µM'),
  ('Cc1nc(N)sc1-n1ccc(C(F)(F)F)n1', 'IC50', '46 µM'),
  ('Nc1ccc(S(=O)(=O)Nc2nccs2)cc1 [SULFATHIAZOLE]', 'IC50', '430 µM'),
  ('NCCN1CCC(Cc2ccccc2)CC1', 'IC50', '0.23 µM'),
  ('CNCCN(C)C', 'IC50', '5 µM');

Moving on to the next molecule.
Request: What value of IC50 has been recorded for this entry: CCNC(=O)[C@@H](C)N
Response: > 200 µM
